- Tested on: HEL;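 note: growth inhibition of HEL cells, read out with a cell viability assay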
- test details: cells
- Assay type: functional, cell-based, Homo sapiens
- reported conditions: Homo sapiens, HEL
- Description: SANGER: Inhibition of human HEL cell growth in a cell viability assay.
pIC50: −log10 of the molar value.
Assignment: determine reported pIC50 for the given compounds.

Example compounds with recorded pIC50:
INSERT INTO results (compound, observed_property, result_value) VALUES
  ('Cc1ccc(Nc2nccc(N(C)c3ccc4c(C)n(C)nc4c3)n2)cc1S(N)(=O)=O', 'pIC50', '< 5.10'),
  ('CCOc1nc(NC(=O)Cc2cc(OC)ccc2OC)cc(N)c1C#N', 'pIC50', '< 5.00'),
  ('COc1cc(F)c(F)c(Nc2ccc(I)cc2F)c1NS(=O)(=O)C1(CC(O)CO)CC1 (configuration not stated)', 'pIC50', '< 5.30'),
  ('CC(=O)O[C@@]12CO[C@@H]1C[C@H](O)[C@@]1(C)C(=O)[C@H](O)C3=C(C)[C@@H](OC(=O)[C@H](O)[C@@H](NC(=O)OC(C)(C)C)c4ccccc4)C[C@@](O)([C@@H](OC(=O)c4ccccc4)[C@H]21)C3(C)C', 'pIC50', '< 8.00'),
  ('Cc1cc(Nc2cc(N3CCN(C)CC3)nc(Sc3ccc(NC(=O)C4CC4)cc3)n2)n[nH]1', 'pIC50', '< 5.70');

# batch size: 2; output pIC50 per entry
1. Cn1cc(C2=C(c3ccc(Cl)cc3Cl)C(=O)NC2=O)c2ccccc21
2. Nc1ccn([C@@H]2O[C@H](CO)[C@@H](O)[C@@H]2O)c(=O)n1

A)
1: < 5.00; 2: 7.69

###

- System: MOLT-4;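 note: growth inhibition of MOLT-4 cells, determined with a cell viability readout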
- test details: cells
- Type: functional, cell-based
- reported conditions: Homo sapiens
- Description: SANGER: Inhibition of human MOLT-4 cell growth in a cell viability assay.
Could you please report measured IC50 for the items listed next?
Numbers only, in nM.

INSERT INTO results (molecule, system_name, result_value) VALUES
  ('CN(Cc1cnc2nc(N)nc(N)c2n1)c1ccc(C(=O)N[C@@H](CCC(=O)O)C(=O)O)cc1 [METHOTREXATE]', 'MOLT-4', 21.2);

Provide IC50 for all items below, preserving their order.
1. COC(=O)CNC(=O)C(=O)OC
2. CO[C@H]1C[C@@H]2CC[C@@H](C)[C@@](O)(O2)C(=O)C(=O)N2CCCC[C@H]2C(=O)O[C@H]([C@H](C)C[C@@H]2CC[C@@H](O)[C@H](OC)C2)CC(=O)[C@H](C)/C=C(\C)[C@@H](O)[C@@H](OC)C(=O)[C@H](C)C[C@H](C)/C=C/C=C/C=C/1C [SIROLIMUS]
3. CCC1=C[C@@H]2CN(C1)Cc1c([nH]c3ccccc13)[C@@](C(=O)OC)(c1cc3c(cc1OC)N(C)[C@H]1[C@@](O)(C(=O)OC)[C@H](OC(C)=O)[C@]4(CC)C=CCN5CC[C@]31[C@@H]54)C2 [VINORELBINE]

A)
1. 718000
2. 96.8
3. 6.66

###

- Tested on: RD
- test details: cells
- Assay type: functional, cell-based, Homo sapiens
- reported conditions: rd
- Description: SANGER: Inhibition of human RD cell growth in a cell viability assay.
pIC50: −log10 of the molar value.
observed property: pIC50

Q) Provide pIC50 value for the following compound: Cc1cc([C@@H](C)Nc2ccccc2C(=O)O)c2nc(N3CCOCC3)cc(=O)n2c1 [AZD-6482]
A) < 5.29
